- assay.details: self-splicing fitness, log relative to wild type (ln ratio); higher = more splicing; Tetrahymena group I intron in knt gene, E. coli kanamycin selection, DiMSum; sequences stand for … in CUCUCU…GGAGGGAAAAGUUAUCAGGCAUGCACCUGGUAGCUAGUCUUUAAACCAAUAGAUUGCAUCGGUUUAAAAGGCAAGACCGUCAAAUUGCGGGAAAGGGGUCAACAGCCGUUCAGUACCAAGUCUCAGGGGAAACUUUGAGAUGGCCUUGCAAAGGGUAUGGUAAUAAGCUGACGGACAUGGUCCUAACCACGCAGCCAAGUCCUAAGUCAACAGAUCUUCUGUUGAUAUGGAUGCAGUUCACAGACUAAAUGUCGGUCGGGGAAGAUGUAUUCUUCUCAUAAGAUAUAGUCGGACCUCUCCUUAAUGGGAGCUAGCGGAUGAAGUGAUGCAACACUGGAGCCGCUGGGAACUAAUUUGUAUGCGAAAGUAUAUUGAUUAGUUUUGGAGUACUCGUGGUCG;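 note: selection with 25 µg/mL kanamycin versus none on LB agar overnight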
- reported.conditions: 37 °C
Measured self-splicing fitness (ln) values are reported for all entries that follow.
Form field (numeric): enter value without unit.

Known self-splicing fitness (ln) results, listed for orientation:
record.sequence: GGCGAGCAAUAUUACGACAC
test.value: -0.253

record.sequence: GCUUAGCAAUAUUACGAGCG
test.value: -1.1

record.sequence: GGUUAGCAAUAUUACGUUUA
test.value: -0.992

record.sequence: CCUAAGCAAUAUUACGGGGA
test.value: -1.92

record.sequence: AACCAGCAAUAUUACGUUUG
test.value: -2.31

record.sequence: UGCCAGCAAUAUUACGAUCG
test.value: 0.0388

record.sequence: AUCUAGCAAUAUUACGUAGU
test.value: -0.758

record.sequence: GGGUAGCAAUAUUACGAGCU
test.value: -1.33

Data request, read-out self-splicing fitness (ln), for GUUAAGCAAUAUUACGUGAU
-1.44

Recorded self-splicing fitness (ln) for UAGCAGCAAUAUUACGAUCU , please?
-1.08

What self-splicing fitness (ln) value was documented for this sequence, AGCAAGCAAUAUUACGAAAC ?
-1.03

----------
- assay.details: self-splicing fitness, log relative to wild type (ln ratio); higher = more splicing; Tetrahymena group I intron in knt gene, E. coli kanamycin selection, DiMSum; sequences stand for … in CUCUCU…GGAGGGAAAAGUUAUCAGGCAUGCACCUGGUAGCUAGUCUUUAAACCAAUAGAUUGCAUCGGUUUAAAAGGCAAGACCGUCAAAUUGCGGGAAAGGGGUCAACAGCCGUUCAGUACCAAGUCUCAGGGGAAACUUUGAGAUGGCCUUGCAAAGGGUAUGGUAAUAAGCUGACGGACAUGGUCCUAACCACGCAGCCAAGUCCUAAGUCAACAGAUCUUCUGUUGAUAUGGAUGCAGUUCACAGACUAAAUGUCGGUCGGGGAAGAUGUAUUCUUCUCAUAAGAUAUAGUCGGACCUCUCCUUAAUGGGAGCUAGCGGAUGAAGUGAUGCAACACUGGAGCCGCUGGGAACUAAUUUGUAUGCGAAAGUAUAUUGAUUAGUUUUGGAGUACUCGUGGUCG
- reported.conditions: 30 °C
Parameter: self-splicing fitness (ln). Scope: all listed entries.
Could you keep your reply to the number by itself?

record.sequence: UGAAAGCAAUAUUACGGAUC
self-splicing fitness (ln): -3.19

State the recorded self-splicing fitness (ln) for this entry: GAGAAGCAAUAUUACGACUU
-1.9

Quick one: self-splicing fitness (ln) of GCAGAGCAAUAUUACGAAUC ?
-1.94

Form field: reported self-splicing fitness (ln) of GAUAAGCAAUAUUACGGCAG
-3.5

Look up self-splicing fitness (ln): CGGCAGCAAUAUUACGUCCA
-0.34

Fill in the blank: the reported self-splicing fitness (ln) of GUUGAGCAAUAUUACGUCCA is ____.
-2.21

Field request: self-splicing fitness (ln) | item: GUAGAGCAAUAUUACGCAUC
-1.49

Find the recorded self-splicing fitness (ln) belonging to AUGCAGCAAUAUUACGCGCU and report it.
-1.37

----------
- assay.details: self-splicing fitness, log relative to wild type (ln ratio); higher = more splicing; Tetrahymena group I intron in knt gene, E. coli kanamycin selection, DiMSum; sequences stand for … in CUCUCU…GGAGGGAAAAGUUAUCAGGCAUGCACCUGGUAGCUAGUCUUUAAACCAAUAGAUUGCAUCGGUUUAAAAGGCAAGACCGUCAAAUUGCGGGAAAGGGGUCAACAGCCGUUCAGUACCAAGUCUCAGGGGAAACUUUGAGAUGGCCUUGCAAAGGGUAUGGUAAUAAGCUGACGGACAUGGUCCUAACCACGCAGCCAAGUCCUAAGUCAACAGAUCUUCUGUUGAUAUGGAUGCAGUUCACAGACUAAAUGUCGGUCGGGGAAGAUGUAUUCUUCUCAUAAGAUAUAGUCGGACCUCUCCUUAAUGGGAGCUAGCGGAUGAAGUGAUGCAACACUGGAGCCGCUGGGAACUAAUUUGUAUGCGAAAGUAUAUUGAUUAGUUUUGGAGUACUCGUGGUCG
- reported.conditions: 30 °C
Note to self: values exactly at -2 are criterion met. So self-splicing fitness (ln) at or above -2 is criterion met, below is criterion not met.

For orientation, consider the following solved cases.
record.sequence: UAAUAGCAAUAUUACGGAUU
group.label: criterion not met
--
record.sequence: GGAAAGCAAUAUUACGUCCA
group.label: criterion met
--
record.sequence: GCACAGCAAUAUUACGUUGG
group.label: criterion met
--
record.sequence: UCCCAGCAAUAUUACGGAAU
group.label: criterion not met
--
record.sequence: GGCUAGCAAUAUUACGUGCC
group.label: criterion not met

Assess whether reported self-splicing fitness (ln) for GAUUAGCAAUAUUACGCGUU sits at -2 or higher.
criterion not met

hey, is self-splicing fitness (ln) for this one >= -2? AUUGAGCAAUAUUACGGACG
criterion not met

Hi, just wondering whether UAGGAGCAAUAUUACGGGUG shows self-splicing fitness (ln) of -2 or higher.
criterion not met

Is self-splicing fitness (ln) for GUUUAGCAAUAUUACGGAUC at or above -2?
criterion met

Please indicate if the recorded self-splicing fitness (ln) for GAUCAGCAAUAUUACGAUUU meets or exceeds -2.
criterion met

Item GAAAAGCAAUAUUACGGCAG with self-splicing fitness (ln) of -2 or above?
criterion not met

Form field: self-splicing fitness (ln) at least -2? Entry: AGAAAGCAAUAUUACGGUAG
criterion not met

Is the recorded value of self-splicing fitness (ln) equal to or greater than -2 for this sequence? UAAUAGCAAUAUUACGAUCG
criterion met

# check: self-splicing fitness (ln) of CAACAGCAAUAUUACGACUU is greater than or equal to -2
criterion met

Check if self-splicing fitness (ln) >= -2 (inclusive). Item: UUACAGCAAUAUUACGACCC
criterion not met

----------
- assay.details: self-splicing fitness, log relative to wild type (ln ratio); higher = more splicing; Tetrahymena group I intron in knt gene, E. coli kanamycin selection, DiMSum; sequences stand for … in CUCUCU…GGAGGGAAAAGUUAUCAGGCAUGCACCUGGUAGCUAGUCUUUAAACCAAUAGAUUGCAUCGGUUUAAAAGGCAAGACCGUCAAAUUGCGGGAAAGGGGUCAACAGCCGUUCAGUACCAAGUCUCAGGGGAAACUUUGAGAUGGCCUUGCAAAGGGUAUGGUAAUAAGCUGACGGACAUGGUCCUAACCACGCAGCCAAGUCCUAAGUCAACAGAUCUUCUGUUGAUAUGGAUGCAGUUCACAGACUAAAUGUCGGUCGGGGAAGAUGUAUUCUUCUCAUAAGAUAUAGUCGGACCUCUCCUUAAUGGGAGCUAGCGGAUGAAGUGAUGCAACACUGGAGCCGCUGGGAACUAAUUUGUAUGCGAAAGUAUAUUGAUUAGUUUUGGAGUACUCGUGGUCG
- reported.conditions: 30 °C
Listed next: entries and their corresponding self-splicing fitness (ln).
The answer should be written as a number, with no unit following it.

Previously resolved entries follow.
record.sequence: CGCAAGCAAUAUUACGAUAU
test.value: -2.7
--
record.sequence: CUAUAGCAAUAUUACGUACG
test.value: 0.0512
--
record.sequence: UGCGAGCAAUAUUACGAAAC
test.value: -2.99
--
record.sequence: CUCGAGCAAUAUUACGAGCG
test.value: -3.66

State the recorded self-splicing fitness (ln) for this entry: AGGAAGCAAUAUUACGCCCG
-0.151

Which self-splicing fitness (ln) is listed for UUAAAGCAAUAUUACGGGUG ?
0.148

GET /values?readout=self-splicing fitness (ln)&item= GCCGAGCAAUAUUACGUUGU
-2.48

I'd like to know its self-splicing fitness (ln). The sequence in question is CUGAAGCAAUAUUACGGCGU
-3.6

If you can, please state the reported self-splicing fitness (ln) value of AAUCAGCAAUAUUACGGUUA .
-0.439

May I ask what self-splicing fitness (ln) has been recorded for AUUUAGCAAUAUUACGGACA ?
-1.34

So what's the measured self-splicing fitness (ln) for this one? AUUUAGCAAUAUUACGUUAG
-3.03

Which self-splicing fitness (ln) is listed for UAGAAGCAAUAUUACGCUCU ?
-2.53

# self-splicing fitness (ln) lookup, item UGCGAGCAAUAUUACGUGUA
-2.83

Bench note: what self-splicing fitness (ln) did UCGAAGCAAUAUUACGUUGG show?
-2.99

I am curious: what self-splicing fitness (ln) value has been reported for UUUUAGCAAUAUUACGCUCU ?
-0.0349

Need self-splicing fitness (ln), item GAUAAGCAAUAUUACGCCUG
-0.902
